- testProtocol: in vitro
- conditionDetails: human, microsomes
- Description: Intrinsic clearance in human liver microsomes
valueType: CLint scaled

{"compound": "C[C@H]1CN(C(=O)CC[C@@]2(C)NC(=O)NC2=O)CCN1c1ccc(Cl)c(Cl)c1", "CLint scaled": "23.5 mL/min/kg"}

Using known records, supply CLint scaled for C[C@@H](C[C@@]1(C2CC2)NC(=O)NC1=O)C(=O)N1CCN(c2ccc(F)c(F)c2)[C@@H](C)C1 30.8 mL/min/kg

Using known records, supply CLint scaled for O=C1NC(=O)C(CCC(=O)N2CCN(c3ccccc3)CC2)N1 (stereo not drawn) < 14.7 mL/min/kg

====

Listing of recorded CLint scaled by entry.
- testProtocol: in vitro
- conditionDetails: rat, microsomes
- Description: Intrinsic clearance in rat liver microsomes
Write the answer as a number in mL/min/kg, unit excluded.

{"compound": "C[C@H]1CN(C(=O)CC[C@@]2(C)NC(=O)NC2=O)CCN1c1ccc(Cl)c(Cl)c1", "valueUnit": "mL/min/kg", "CLint scaled": 44}

Using known records, supply CLint scaled for C[C@@H](C[C@@]1(C2CC2)NC(=O)NC1=O)C(=O)N1CCN(c2ccc(F)c(F)c2)[C@@H](C)C1 60.3

Using known records, supply CLint scaled for O=C1NC(=O)C(CCC(=O)N2CCN(c3ccccc3)CC2)N1 (stereo not drawn) 17.8
